Origin of the recorded values: patent US20250195521A1

Target: NRAS WT (Homo sapiens (Human), UniProt P01111+P62937)
Sequence (P01111 whole entry): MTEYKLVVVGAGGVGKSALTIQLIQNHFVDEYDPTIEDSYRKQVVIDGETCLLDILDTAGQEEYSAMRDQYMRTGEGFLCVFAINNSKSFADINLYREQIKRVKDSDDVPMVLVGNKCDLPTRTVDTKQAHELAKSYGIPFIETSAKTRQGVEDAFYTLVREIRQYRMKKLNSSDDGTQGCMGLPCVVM
Sequence (P62937 whole entry): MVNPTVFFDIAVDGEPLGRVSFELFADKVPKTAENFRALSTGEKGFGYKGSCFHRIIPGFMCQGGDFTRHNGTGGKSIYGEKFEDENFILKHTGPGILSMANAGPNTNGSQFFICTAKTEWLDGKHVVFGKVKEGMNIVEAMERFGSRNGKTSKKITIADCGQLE
Assay: Ras-Raf disruption/FRET/MOA assay (BRAF RBD, Cyclophilin A)
Assay type: biochemical
Experimental: Compound is present in plate wells as a 10-point 3-fold dilution series starting at a final concentration of 30 μM. After incubation at 25° C. for 3 hours, a mixture of Anti-His Eu—W1024 and anti-GST allophycocyanin is then added to assay sample wells at final concentrations of 10 nM and 50 nM, respectively, and the reaction incubated for an additional 1.5 hours. […]
pIC50: −log10 of the molar value.
Measured pIC50 values are reported for all entries that follow.

Previously resolved entries follow.
- CCn1c(-c2cccnc2[C@H](C)OC)c2c3cc(ccc31)-c1csc(n1)C[C@H](NC(=O)N1CCC1)C(=O)N1CCC[C@H](N1)C(=O)OCC(C)(C)C2: 6.00 to 7.00
- CCn1c(-c2cccnc2[C@H](C)OC)c2c3cc(ccc31)-c1csc(n1)C[C@H](NC(=O)[C@@H]1CCO1)C(=O)N1CCC[C@H](N1)C(=O)OCC(C)(C)C2: 6.00 to 7.00

Problem: Look up and report measured pIC50 for this entry: CCn1c(-c2cccnc2[C@H](C)OC)c2c3cc(ccc31)-c1csc(n1)C[C@H](NC(=O)[C@H](C(C)C)N(CCc1ccncc1)C1CC1)C(=O)N1CCC[C@H](N1)C(=O)OCC(C)(C)C2
Result: 6.00 to 7.00

----------
Biological target: KRAS G12S (Homo sapiens (Human), UniProt P01116+P62937, G12S)
Sequence (P01116 other isoform, or with tags, fused parts or gaps G12S): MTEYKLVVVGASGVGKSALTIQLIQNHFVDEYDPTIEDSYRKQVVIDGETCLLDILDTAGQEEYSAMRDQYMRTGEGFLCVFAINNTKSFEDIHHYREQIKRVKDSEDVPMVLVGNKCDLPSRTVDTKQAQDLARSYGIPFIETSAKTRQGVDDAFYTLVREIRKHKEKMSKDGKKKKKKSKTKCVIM
Sequence (P62937 whole entry): as the sequence (P62937 whole entry) above
Assay: Ras-Raf disruption/FRET/MOA assay (BRAF RBD, Cyclophilin A)
Assay type: biochemical
Conditions: read-out: KRAS G12S FRET IC50
pIC50: −log10 of the molar value.
Outcome measure: pIC50

# example entries with known answers
• CCn1c(-c2cccnc2[C@H](C)OC)c2c3cc(ccc31)-c1cccc(c1)C[C@H](NC(=O)[C@H](C(C)C)N(C)C(=O)[C@@H]1OCC[C@@H]1c1ccccc1)C(=O)N1CCC[C@H](N1)C(=O)OCC(C)(C)C2 = 6.00 to 7.00
• CCn1c(-c2cccnc2[C@H](C)OC)c2c3cc(ccc31)-c1csc(n1)C[C@H](NC(=O)[C@@H]1CCO1)C(=O)N1CCC[C@H](N1)C(=O)OCC(C)(C)C2 = 5.00 to 6.00
• CCn1c(-c2cccnc2[C@H](C)OC)c2c3cc(ccc31)-c1csc(n1)C[C@H](NC(=O)[C@H](C(C)C)N(C)C(=O)N1CCN(C)CC13CC3)C(=O)N1CCC[C@H](N1)C(=O)OCC(C)(C)C2 = 5.00 to 6.00
• CCn1c(-c2cccnc2[C@H](C)OC)c2c3cc(ccc31)-c1csc(n1)C[C@H](NC(=O)N1CCC1)C(=O)N1CCC[C@H](N1)C(=O)OCC(C)(C)C2 [Compound A369] = 6.00 to 7.00

Shift focus to the following entry.
Problem: Please report pIC50 for the following compound: CCn1c(-c2cccnc2[C@H](C)OC)c2c3cc(ccc31)-c1cc(O)cc(c1)C[C@H](NC(=O)[C@H](C(C)C)N(C)C(=O)[C@H]1CCN(C(=O)[C@]3(C)CCCN3)C1)C(=O)N1CCC[C@H](N1)C(=O)OCC(C)(C)C2
Result: 7.00 to 8.00

----------
Target: KRAS G13C (Homo sapiens (Human), UniProt P01116+P62937, G13C)
Sequence (P01116 other isoform, or with tags, fused parts or gaps G13C): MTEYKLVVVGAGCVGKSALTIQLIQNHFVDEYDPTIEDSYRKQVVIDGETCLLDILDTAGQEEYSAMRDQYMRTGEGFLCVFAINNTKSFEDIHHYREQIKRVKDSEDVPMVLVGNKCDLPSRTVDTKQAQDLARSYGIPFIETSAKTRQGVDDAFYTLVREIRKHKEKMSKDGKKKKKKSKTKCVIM
Sequence (P62937 whole entry): as the sequence (P62937 whole entry) above
Assay: Ras-Raf disruption/FRET/MOA assay (BRAF RBD, Cyclophilin A)
Assay type: biochemical
Conditions: read-out: KRAS G13C FRET IC50
Recorded measurements of IC50, one per entry

Problem: Read the entry CCn1c(-c2cccnc2[C@H](C)OC)c2c3cc(ccc31)-c1cc(O)cc(c1)C[C@H](NC(=O)[C@H](C(C)C)N(C)C(=O)C1(C(F)F)CCCO1)C(=O)N1CCC[C@H](N1)C(=O)OCC(C)(C)C2 (stereo partly drawn) and write its reported IC50.
Result: 100 to 1000 nM

Problem: Return IC50 for the following compound: CCn1c(-c2cccnc2[C@H](C)OC)c2c3cc(ccc31)-c1csc(n1)C[C@H](NC(=O)[C@H](C(C)C)N(C)C(=O)N1C[C@@H]3OCCN(C)[C@@H]3C1)C(=O)N1CCC[C@H](N1)C(=O)OCC(C)(C)C2
Result: 100 to 1000 nM

Problem: For CCn1c(-c2cccnc2[C@H](C)OC)c2c3cc(ccc31)-c1csc(n1)C[C@H](NC(=O)[C@H](C(C)C)N(C)C(=O)N1CC[C@]3(CCNC3=O)C1)C(=O)N1CCC[C@H](N1)C(=O)OCC(C)(C)C2 , write its IC50.
Result: 1000 to 10000 nM

Problem: For the compound CCn1c(-c2cccnc2[C@H](C)OC)c2c3cc(ccc31)-c1csc(n1)C[C@H](NC(=O)[C@H](C(C)C)N(C)C(=O)N1CCC[C@@H]1CN(C)C)C(=O)N1CCC[C@H](N1)C(=O)OCC(C)(C)C2 , report IC50.
Result: 100 to 1000 nM

Problem: Recall and state the measured IC50 for CCn1c(-c2cc(N3CCN(C)CC3)cnc2[C@H](C)OC)c2c3cc(ccc31)-c1csc(n1)C[C@H](NC(=O)[C@H](C(C)C)N(C)C(=O)[C@@H]1OCC[C@@H]1c1ccncc1)C(=O)N1CCC[C@H](N1)C(=O)OCC(C)(C)C2 .
Result: 100 to 1000 nM

Problem: Return IC50 for the following compound: CCn1c(-c2cccnc2[C@H](C)OC)c2c3cc(ccc31)-c1cc(O)cc(c1)C[C@H](NC(=O)[C@H](C(C)C)N(C)C(=O)C1CC(C)C1)C(=O)N1CCC[C@H](N1)C(=O)OCC(C)(C)C2 (stereo partly drawn)
Result: 10 to 100 nM

----------
Reported IC50 values for a set of compounds
Target: KRAS G12S (Homo sapiens (Human), UniProt P01116+P62937, G12S)
Test: Ras-Raf disruption/FRET/MOA assay (BRAF RBD, Cyclophilin A)
Format: biochemical
Details: read-out: KRAS G12S FRET IC50

- CCn1c(-c2cc(N3CCN(C)CC3)cnc2[C@H](C)OC)c2c3cc(ccc31)-c1csc(n1)C[C@H](NC(=O)[C@H](C(C)C)N(C)C(=O)N1CC(C3COC3)C1)C(=O)N1CCC[C@H](N1)C(=O)OCC(C)(C)C2 [Compound A465]: 10 to 100 nM
- CCn1c(-c2cccnc2[C@H](C)OC)c2c3cc(ccc31)-c1cc(O)cc(c1)C[C@H](NC(=O)[C@H](C(C)C)N(C)C(=O)[C@@H]1[C@H]3CC[C@H](C3)[C@@H]1N)C(=O)N1CCC[C@H](N1)C(=O)OCC(C)(C)C2 [Compound A417]: 100 to 1000 nM

Problem: Tell us which IC50 value is on record for CCn1c(-c2cccnc2[C@H](C)OC)c2c3cc(ccc31)-c1cc(cc3nc[nH]c13)C[C@H](NC(=O)[C@H](C(C)C)N(C)C(C)=O)C(=O)N1CCC[C@H](N1)C(=O)OCC(C)(C)C2 [Compound A153]
Result: > 10000 nM

Problem: Determine its reported IC50: CCn1c(-c2cccnc2[C@H](C)OC)c2c3cc(ccc31)-c1csc(n1)C[C@H](NC(=O)[C@H](C(C)C)N(C)C(=O)N1CCC13COC3)C(=O)N1CCC[C@H](N1)C(=O)OCC(C)(C)C2 [Compound A560]
Result: 100 to 1000 nM

Problem: State, in one line, measured IC50 of CCn1c(-c2cccnc2[C@H](C)OC)c2c3cc(ccc31)-c1csc(n1)C[C@H](NC(=O)[C@H](C(C)C)N(C)C(=O)N1CCCC[C@H](N(C)C)C1)C(=O)N1CCC[C@H](N1)C(=O)OCC(C)(C)C2 [Compound A491]
Result: 10 to 100 nM

Problem: Look up and report measured IC50 for this entry: CCn1c(-c2cccnc2[C@H](C)OC)c2c3cc(ccc31)-c1cc(O)cc(c1)C[C@H](NC(=O)[C@H](C(C)C)N(C)C(=O)[C@H]1CCCO1)C(=O)N1CCC[C@H](N1)C(=O)OCC(C)(C)C2 [Compound A240]
Result: 100 to 1000 nM

Problem: Let me know recorded IC50 for CCn1c(-c2cccnc2[C@H](C)OC)c2c3cc(ccc31)-c1cc(O)cc(c1)C[C@H](NC(=O)C1CCC3C1C3(F)F)C(=O)N1CCC[C@H](N1)C(=O)OCC(C)(C)C2 (some centres unmarked) [Compound A181] , thanks.
Result: 1000 to 10000 nM

Problem: Indicate its recorded IC50; the compound in question is CCn1c(-c2cccnc2[C@H](C)OC)c2c3cc(ccc31)-c1cc(O)cc(c1)C[C@H](NC(=O)[C@@H]1[C@@H](C)CCCN1C(C)=O)C(=O)N1CCC[C@H](N1)C(=O)OCC(C)(C)C2 [Compound A324]
Result: 100 to 1000 nM

Problem: Return IC50 (reported value) for this compound: CCn1c(-c2cccnc2COC)c2c3cc(ccc31)-c1cc(O)cc(c1)C[C@H](NC(=O)[C@H](C(C)C)N(C)C(C)=O)C(=O)N1CCC[C@H](N1)C(=O)OCC(C)(C)C2 [Compound A55]
Result: 1000 to 10000 nM

Problem: Identify the reported IC50 for the following entry. CCn1c(-c2cccnc2[C@H](C)OC)c2c3cc(ccc31)-c1cc(O)cc(c1)C[C@H](NC(=O)[C@H](C(C)C)N(C)C(=O)[C@@H]1COC[C@@H]1N)C(=O)N1CCC[C@H](N1)C(=O)OCC(C)(C)C2 [Compound A418]
Result: 10 to 100 nM

Problem: Query IC50 for CCn1c(-c2cccnc2[C@H](C)OC)c2c3cc(ccc31)-c1csc(n1)C[C@H](NC(=O)[C@H](C(C)C)N(C)C(=O)N1CCN(C)[C@@H](c3ccccc3)C1)C(=O)N1CCC[C@H](N1)C(=O)OCC(C)(C)C2 [Compound A524]
Result: 1000 to 10000 nM

Problem: Fill in reported IC50 for this entry: CCn1c(-c2cccnc2[C@H](C)OC)c2c3cc(ccc31)-c1csc(n1)C[C@H](NC(=O)[C@H](C(C)C)N(C)C(=O)N1CC3(CN(C)C3)C1)C(=O)N1CCC[C@H](N1)C(=O)OCC(C)(C)C2 [Compound A268]
Result: 100 to 1000 nM

Problem: Quick one: give measured IC50 for CCn1c(-c2cccnc2[C@H](C)OC)c2c3cc(ccc31)-c1csc(n1)C[C@H](NC(=O)C1CC1)C(=O)N1CCC[C@H](N1)C(=O)OCC(C)(C)C2 [Compound A367]
Result: 100 to 1000 nM
